Ref: patent US20240391931A1

- System: HER2YVMA (Homo sapiens, UniProt P04626, INS775YVMA)
- Sequence (P04626 with tags, fused parts or gaps INS775YVMA): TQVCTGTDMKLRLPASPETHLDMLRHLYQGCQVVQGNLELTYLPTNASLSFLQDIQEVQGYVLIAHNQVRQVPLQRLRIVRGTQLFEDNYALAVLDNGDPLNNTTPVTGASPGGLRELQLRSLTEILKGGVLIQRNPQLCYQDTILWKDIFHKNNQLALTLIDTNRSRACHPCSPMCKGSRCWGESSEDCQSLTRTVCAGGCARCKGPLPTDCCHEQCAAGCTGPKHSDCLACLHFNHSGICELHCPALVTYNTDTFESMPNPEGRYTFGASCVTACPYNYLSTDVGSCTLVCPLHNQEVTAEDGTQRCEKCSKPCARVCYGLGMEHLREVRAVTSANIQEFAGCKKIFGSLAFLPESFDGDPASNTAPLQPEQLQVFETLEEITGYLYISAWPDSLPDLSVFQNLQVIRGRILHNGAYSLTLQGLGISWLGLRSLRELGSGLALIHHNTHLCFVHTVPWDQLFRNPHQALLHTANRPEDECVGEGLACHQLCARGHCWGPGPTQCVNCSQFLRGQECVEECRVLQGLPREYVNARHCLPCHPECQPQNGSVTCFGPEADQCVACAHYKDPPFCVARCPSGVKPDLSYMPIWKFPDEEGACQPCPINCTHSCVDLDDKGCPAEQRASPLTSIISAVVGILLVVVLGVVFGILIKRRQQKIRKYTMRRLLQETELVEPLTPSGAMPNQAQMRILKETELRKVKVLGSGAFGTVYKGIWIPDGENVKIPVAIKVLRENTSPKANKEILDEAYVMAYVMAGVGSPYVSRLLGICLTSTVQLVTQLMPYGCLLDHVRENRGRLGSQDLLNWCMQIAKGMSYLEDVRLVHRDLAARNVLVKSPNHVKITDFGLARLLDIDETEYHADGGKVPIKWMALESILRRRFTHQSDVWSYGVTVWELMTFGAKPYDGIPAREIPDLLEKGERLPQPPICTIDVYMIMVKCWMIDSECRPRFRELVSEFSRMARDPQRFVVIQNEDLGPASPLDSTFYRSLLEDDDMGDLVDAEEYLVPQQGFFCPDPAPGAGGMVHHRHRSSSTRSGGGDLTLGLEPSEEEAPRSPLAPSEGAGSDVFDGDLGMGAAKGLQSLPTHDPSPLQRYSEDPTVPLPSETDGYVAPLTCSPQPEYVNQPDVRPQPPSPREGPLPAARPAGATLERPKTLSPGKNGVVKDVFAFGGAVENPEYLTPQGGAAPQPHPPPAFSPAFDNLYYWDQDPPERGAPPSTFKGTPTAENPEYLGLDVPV
- Procedure Text: HER2 signaling (pHER2) in Hek293-HER2YVMA cells
- Format: cell-based
- Design: expressed in transfected cells; host or cells: HEK293 (pool), Ba/F3 (clones), BEAS2B (clones); lentiviral vector pCDH-CMV-MCS-EF1-Neo
- Experimental Setup: 1.5 hr compound, 1% FBS, read-out: HEKYVMA pHER2 EC50
Recorded Endpoint: EC50

Cc1ccc(Oc2ccc(Nc3ncnc4sc5c(c34)CCN(C(=O)/C=C/CN(C)C)C5)cc2C)cn1 [Compound 8] = < 100 nM

Ask | Please provide the recorded EC50 for Cc1ncc(Oc2ccc(Nc3ncnc4sc5c(c34)CCN(C(=O)/C=C/CN(C)C)C5)cc2C)cn1 [Compound 21] , tested on HER2YVMA (Homo sapiens, UniProt P04626, INS775YVMA).
Reply | < 100 nM

Ask | What do you have for Cc1ccc(Oc2ccc(Nc3ncnc4sc5c(c34)CCN(C(=O)/C=C/CN3CC(F)(CO)C3)C5)cc2C)cn1 [Compound 151] ?
Reply | 100 to 350 nM

Ask | What do you have for COc1ccc(Oc2ccc(Nc3ncnc4sc5c(c34)CCN(C(=O)/C=C/CN(C)C)CC5)cc2C)cn1 [Compound 173] ?
Reply | 100 to 350 nM

* * *

- System: EGFR (Homo sapiens, UniProt P00533)
- Sequence (P00533 25-1210): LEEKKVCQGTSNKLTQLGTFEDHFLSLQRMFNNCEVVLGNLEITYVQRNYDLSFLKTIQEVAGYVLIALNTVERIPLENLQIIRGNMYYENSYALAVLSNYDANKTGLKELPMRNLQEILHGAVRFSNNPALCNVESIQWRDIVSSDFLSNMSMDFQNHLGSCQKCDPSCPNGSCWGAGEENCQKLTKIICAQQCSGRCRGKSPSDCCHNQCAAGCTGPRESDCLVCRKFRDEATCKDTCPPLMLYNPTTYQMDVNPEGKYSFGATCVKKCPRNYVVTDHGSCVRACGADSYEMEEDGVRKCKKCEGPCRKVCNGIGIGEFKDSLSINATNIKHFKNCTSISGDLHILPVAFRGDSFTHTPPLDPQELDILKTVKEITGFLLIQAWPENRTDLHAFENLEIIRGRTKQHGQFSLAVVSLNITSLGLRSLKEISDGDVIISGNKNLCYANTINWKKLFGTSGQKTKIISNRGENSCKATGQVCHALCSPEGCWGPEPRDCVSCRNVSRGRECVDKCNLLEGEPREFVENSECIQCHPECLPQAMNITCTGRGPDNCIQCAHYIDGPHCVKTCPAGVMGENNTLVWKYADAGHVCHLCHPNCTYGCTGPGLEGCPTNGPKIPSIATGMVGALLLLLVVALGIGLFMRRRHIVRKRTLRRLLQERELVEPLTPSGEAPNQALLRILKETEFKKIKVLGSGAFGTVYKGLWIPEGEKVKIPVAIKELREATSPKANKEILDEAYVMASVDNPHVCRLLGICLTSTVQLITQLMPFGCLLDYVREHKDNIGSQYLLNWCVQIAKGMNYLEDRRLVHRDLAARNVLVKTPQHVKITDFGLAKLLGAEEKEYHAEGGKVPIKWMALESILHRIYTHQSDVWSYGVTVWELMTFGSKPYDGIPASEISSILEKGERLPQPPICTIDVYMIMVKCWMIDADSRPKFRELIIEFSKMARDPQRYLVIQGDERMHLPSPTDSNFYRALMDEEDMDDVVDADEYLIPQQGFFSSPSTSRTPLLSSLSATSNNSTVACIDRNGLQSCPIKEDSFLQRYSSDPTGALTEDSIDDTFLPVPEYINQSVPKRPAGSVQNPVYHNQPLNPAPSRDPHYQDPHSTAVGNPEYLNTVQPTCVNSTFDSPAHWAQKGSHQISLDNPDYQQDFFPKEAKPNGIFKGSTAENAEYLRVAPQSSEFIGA
- Procedure Text: EGFR signaling (pEGFR Tyr1068/total EGFR MSD) in A431 cells
- Assay type: cell-based
- Parameters: endogenous in cells; host or cells: A431, N87
- Experimental Setup: A431 cells; read-out: A431 pEGFR EC50
pEC50: −log10 of the molar value.
Recorded Endpoint: pEC50

Ask | Look up pEC50: Cc1ccc(Oc2ccc(Nc3ncnc4sc5c(c34)CCN(C(=O)/C=C/CN3CC(O)C3)C5)cc2C)cn1 [Compound 53]
Reply | 5.00 to 6.00

Ask | What do you have for Cc1ccc(Oc2ccc(Nc3ncnc4sc5c(c34)CCN(C(=O)/C=C/CN3CCCC(F)(CO)C3)C5)cc2C)cn1 (stereo not drawn) [Compound 150] ?
Reply | 6.00 to 7.00

Ask | What do you have for Cc1ccc(Oc2ccc(Nc3ncnc4sc5c(c34)CCN(C(=O)/C=C/CN3CCCC3C(N)=O)C5)cc2C)cn1 (stereo not drawn) [Compound 41] ?
Reply | > 7.00

Ask | What do you have for Cc1ccc(Oc2ccc(Nc3ncnc4sc5c(c34)CCN(C(=O)/C=C/CNC3CCC(C(=O)N(C)C)CC3)C5)cc2C)cn1 (stereo not drawn) [Compound 71] ?
Reply | > 7.00

Ask | What do you have for Cc1ccc(Oc2ccc(Nc3ncnc4sc5c(c34)CC(C)N(C(=O)C=CCN(C)C)C5C)cc2C)cn1 (single isomer, unassigned) [Compound 161] ?
Reply | > 7.00

Ask | What do you have for C=CC(=O)N1CCc2c(sc3ncnc(Nc4ccc(Oc5cccnc5)c(C)c4)c23)C1 [Compound 11] ?
Reply | > 7.00

Ask | What do you have for Cc1cc(Nc2ncnc3sc4c(c23)CCN(C(=O)/C=C/CN(C)C)C4)ccc1Oc1ccc2ncnn2c1 [Compound 3] ?
Reply | 6.00 to 7.00

Ask | What do you have for COc1ccc(Oc2ccc(Nc3ncnc4sc5c(c34)CCN(C(=O)/C=C/CN(C)C)C5)cc2C)cn1 [Compound 95] ?
Reply | 6.00 to 7.00

Ask | What do you have for CNC(=O)CNC/C=C/C(=O)N1CCc2c(sc3ncnc(Nc4ccc(Oc5ccc(C)nc5)c(C)c4)c23)C1 [Compound 39] ?
Reply | 5.00 to 6.00

Ask | What do you have for CC(=O)N1CCN(C/C=C/C(=O)N2CCc3c(sc4ncnc(Nc5ccc(Oc6ccc(C)nc6)c(C)c5)c34)C2)CC1 [Compound 51] ?
Reply | 5.00 to 6.00

Ask | What do you have for Cc1ccc(Oc2ccc(Nc3ncnc4sc5c(c34)CCN(C(=O)/C=C/CN[C@H]3CC[C@H](OC(F)F)CC3)C5)cc2C)cn1 [Compound 69] ?
Reply | > 7.00

Ask | What do you have for Cc1ccc(Oc2ccc(Nc3ncnc4sc5c(c34)CCN(C(=O)/C=C/CN3CC[C@H](F)C3)C5)cc2C)cn1 [Compound 124] ?
Reply | > 7.00

Ask | What do you have for C=CC(=O)N1CCc2c(sc3ncnc(Nc4ccc(Oc5ccc6ncnn6c5)c(Cl)c4)c23)C1 [Compound 4] ?
Reply | 6.00 to 7.00

Ask | What do you have for Cc1ccc(Oc2ccc(Nc3ncnc4sc5c(c34)CCN(C(=O)/C=C/CN3CCCOCC3)C5)cc2C)cn1 [Compound 42] ?
Reply | 6.00 to 7.00

Ask | What do you have for Cc1ccc(Oc2ccc(Nc3ncnc4sc5c(c34)CC(C)N(C(=O)C=CCN(C)C)C5C)cc2C)cn1 (single isomer, unassigned) [Compound 162] ?
Reply | < 5.00

Ask | What do you have for Cc1ccc(Oc2ccc(Nc3ncnc4sc5c(c34)CCN(C(=O)/C=C/CN3CCC(O)C(C)(C)C3)C5)cc2C)cn1 (stereo not drawn) [Compound 114] ?
Reply | 6.00 to 7.00

Ask | What do you have for COc1ccc(Oc2ccc(Nc3ncnc4sc5c(c34)CCN(C(=O)/C=C/CN(C)C(C)(C)C)C5)cc2C)cn1 [Compound 163] ?
Reply | > 7.00

Ask | What do you have for CCN(CC)C/C=C/C(=O)N1CCc2c(sc3ncnc(Nc4ccc(Oc5ccc(C)nc5)c(C)c4)c23)C1 [Compound 131] ?
Reply | > 7.00

* * *

- System: EGFR (Homo sapiens, UniProt P00533)
- Procedure Text: EGFR signaling (pEGFR Tyr1068/total EGFR MSD) in A431 cells
- Type: cell-based
- Design: endogenous in cells; host or cells: A431, N87
- Experimental Setup: ratio A431 pEGFR EC50 to HEK YVMA pHER2 EC50
Recorded Endpoint: Selectivity A431 EC50/HEKYVMA EC50

Cc1ccc(Oc2ccc(Nc3ncnc4sc5c(c34)CCN(C(=O)/C=C/CN3CCCC34CCC4)C5)cc2C)cn1 = D (D: ≥ 5 and < 10)
Cc1ccc(Oc2ccc(Nc3ncnc4sc5c(c34)CCN(C(=O)/C=C/CNC3COC3)C5)cc2C)cn1 = D (D: ≥ 5 and < 10)

* * *

- System: EGFR (Homo sapiens)
- Procedure Text: EGFR occupancy in N87 cells
- Type: cell-based
- Design: endogenous in cells; host or cells: N87
Counter-ions that a name gives are not always drawn.
Recorded Endpoint: EC50

Ask | Look up EC50: Cc1ccc(Oc2ccc(Nc3ncnc4sc5c(c34)CCN(C(=O)/C=C/CN3CC4CCC(C4)C3)C5)cc2C)cn1 [Compound 16, benzenesulfonate salt]
Reply | 0.1 to 0.35 µM

* * *

The following compounds are listed with their measured EC50 values.
- System: HER2YVMA (Homo sapiens, UniProt P04626, INS775YVMA)
- Procedure Text: HER2 signaling (pHER2) in Hek293-HER2YVMA cells
- Assay type: cell-based
- Design: expressed in transfected cells; host or cells: HEK293 (pool), Ba/F3 (clones), BEAS2B (clones); lentiviral vector pCDH-CMV-MCS-EF1-Neo
- Experimental Setup: 1.5 hr compound, 1% FBS, read-out: HEKYVMA pHER2 EC50

Cc1ccc(Oc2ccc(Nc3ncnc4sc5c(c34)CCN(C(=O)/C=C/CN3CC[C@H](CO)C3)C5)cc2C)cn1 [Compound 133] = < 100 nM

Shift focus to the following entry.
Ask | Look up EC50: Cc1ccc(Oc2ccc(Nc3ncnc4sc5c(c34)C[C@@H](C)N(C(=O)/C=C/CN(C)C)[C@H]5C)cc2C)cn1 (racemic) [Compound 149]
Reply | < 100 nM

* * *

- System: HER2YVMA (Homo sapiens, UniProt P04626, INS775YVMA)
- Procedure Text: Enzymatic assay HER2YVMA (method b)
- Experimental Setup: [HER2YVMA]=5 nM, [ATP]=25 μM, [Peptide 22]=1 μM
pIC50: −log10 of the molar value.
Recorded Endpoint: pIC50

Past entries and their recorded results:
Cc1ccc(Oc2ccc(Nc3ncnc4sc5c(c34)CCN(C(=O)/C=C/CN(C)C)CC5)cc2C)cn1 [Compound 100] = 6.00 to 7.00
Cc1ccc(Oc2ccc(Nc3ncnc4sc5c(c34)CCN(C(=O)/C=C/CN[C@H]3CCC[C@H](O)C3)C5)cc2C)cn1 [Compound 73] = > 7.00

Ask | Please provide the recorded pIC50 for Cc1ccc(Oc2ccc(Nc3ncnc4sc5c(c34)CCN(C(=O)/C=C/CN3CCO[C@@H](CO)C3)C5)cc2C)cn1 [Compound 144] , tested on HER2YVMA (Homo sapiens, UniProt P04626, INS775YVMA).
Reply | 6.00 to 7.00

Ask | What do you have for Cc1ccc(Oc2ccc(Nc3ncnc4sc5c(c34)CCN(C(=O)/C=C/CN3CCO[C@H](CO)C3)C5)cc2C)cn1 [Compound 136] ?
Reply | > 7.00

Ask | What do you have for Cc1ccc(Oc2ccc(Nc3ncnc4sc5c(c34)CCN(C(=O)/C=C/CNCc3ccsc3)C5)cc2C)cn1 [Compound 52] ?
Reply | > 7.00

Ask | What do you have for Cc1ccc(Oc2ccc(Nc3ncnc4sc5c(c34)CCN(C(=O)/C=C/CN3CC(F)(CO)C3)C5)cc2C)cn1 [Compound 151] ?
Reply | > 7.00

Ask | What do you have for Cc1ccc(Oc2ccc(Nc3ncnc4sc5c(c34)CCN(C(=O)/C=C/CN3CC(CO)(CO)C3)C5)cc2C)cn1 [Compound 134] ?
Reply | > 7.00
